These measurements were taken from ChEMBL document CHEMBL3871269.

As shown below, each of these molecules has a reported IC50 at 48 h value.
Experiment: Cytotoxicity against human WI38 cells measured after 48 hrs by MTT assay
Format: toxicity, cell-based, WI-38
Entry rule: numbers only, all in µM.

Some solved entries appear below for comparison.
Summary for this molecule, COc1cc([C@@H]2c3cc4c(cc3[C@@H](NC(=O)[C@H](CC(C)C)N3C(=O)C5C6CCC(O6)C5C3=O)[C@H]3COC(=O)[C@H]23)OCO4)cc(OC)c1O (stereo partly drawn) : IC50 at 48 h is 21.9

Summary for this molecule, CC[C@H](C)[C@@H](C(=O)N[C@@H]1c2cc3c(cc2[C@@H](c2cc(OC)c(O)c(OC)c2)[C@H]2C(=O)OC[C@@H]21)OCO3)N1C(=O)C2C3CCC(O3)C2C1=O (stereo partly drawn) : IC50 at 48 h is 65.2

As a next step, examine the molecule that follows.
Summary for this molecule, COc1cc([C@@H]2c3cc4c(cc3[C@@H](NC(=O)[C@H](c3ccccc3)N3C(=O)C5C6CCC(O6)C5C3=O)[C@H]3COC(=O)[C@H]23)OCO4)cc(OC)c1O (stereo partly drawn) : IC50 at 48 h is 26.7
